assay procedure: Inhibition of Sprague-Dawley rat brain GGTI by continuous fluorescence assay
# IC50 per entry

Previously resolved entries follow.
- COC(=O)[C@H](CCSC)N(Cc1ccccc1)C1CCN(Cc2cncn2Cc2ccc(C#N)cc2)CC1: > 2000 nM
- N#Cc1ccc(Cn2cncc2CN2CCC(N(C(=O)c3ccccc3)[C@@H](Cc3ccccc3)C(=O)O)CC2)cc1: > 2000 nM
- COC(=O)[C@H](CCSC)N(C(=O)c1ccccc1)C1CCN(Cc2cncn2Cc2ccc(C#N)cc2)CC1: > 2000 nM
- CSCC[C@H](NC(=O)c1ccc(NC(=O)[C@@H](N)CS)cc1)C(=O)O: > 100 nM
- CSCC[C@H](NC(=O)[C@H](Cc1ccccc1)NC[C@@H](NC[C@@H](N)CS)C(C)C)C(=O)O: > 5000 nM

Inquiry: State the recorded IC50 for this entry: CSCC[C@@H](C(=O)O)N(C(=O)c1ccccc1)C1CCN(Cc2cncn2Cc2ccc(C#N)cc2)CC1
Reply text: > 2000 nM

Inquiry: Same for CC(C)C[C@H](NC(=O)c1ccc(NC(=O)[C@@H](N)CS)cc1-c1ccccc1)C(=O)O
Reply text: 12.4 nM

Inquiry: Same for CCC(C)[C@@H](C(=O)OC)N(C(=O)c1ccccc1)C1CCN(Cc2cncn2Cc2ccc(C#N)cc2)CC1 (stereo not given in full)
Reply text: > 2000 nM

Inquiry: Same for COC(=O)[C@H](Cc1ccccc1)N(C(=O)c1ccccc1)C1CCN(Cc2cncn2Cc2ccc(C#N)cc2)CC1
Reply text: > 2000 nM

Inquiry: Same for COC(=O)[C@H](CCSC)N(C(=O)c1ccccc1)C1CCN(C(=O)C(N)CS)CC1 (stereo not given in full)
Reply text: > 100 nM

* * *

assay procedure: Inhibition of Sprague-Dawley rat brain FTase by continuous fluorescence assay
result type: IC50
Enter the number, and then the unit.

Previously resolved entries follow.
* COC(=O)[C@H](CCSC)N(C(=O)c1ccccc1)C1CCN(Cc2cncn2Cc2ccc(C(F)(F)F)cc2)CC1 | 43.9 nM
* CC(C)C[C@H](NC(=O)c1ccc(NC(=O)[C@@H](N)CS)cc1-c1ccccc1)C(=O)O | 56.2 nM
* COC(=O)[C@H](CCSC)N(C(=O)c1ccccc1)C1CCN(Cc2cncn2Cc2ccccc2)CC1 | 397 nM
* COC(=O)[C@H](CCSC)N(C(=O)c1ccccc1)C1CCN(Cc2cncn2Cc2ccc(OC)cc2)CC1 | 575 nM
* CSCC[C@H](NC(=O)c1ccc(NC(=O)[C@@H](N)CS)cc1)C(=O)O | 72 nM
* CCC(C)[C@@H](C(=O)OC)N(C(=O)c1ccccc1)C1CCN(Cc2cncn2Cc2ccc(C#N)cc2)CC1 (some centres undefined) | 32.7 nM
* COC(=O)[C@H](CCSC)N(Cc1ccccc1)C1CCN(Cc2cncn2Cc2ccc(C#N)cc2)CC1 | 2.35 nM
* N#Cc1ccc(Cn2cncc2CN2CCC(N(C(=O)c3ccccc3)[C@@H](Cc3ccccc3)C(=O)O)CC2)cc1 | 54.1 nM

Inquiry: State the recorded IC50 for this entry: COC(=O)[C@H](CCSC)N(C(=O)c1ccccc1)C1CCN(Cc2cncn2Cc2ccc(C#N)cc2)CC1
Reply text: 4.6 nM

Inquiry: Same for COC(=O)[C@H](Cc1ccccc1)N(C(=O)c1ccccc1)C1CCN(Cc2cncn2Cc2ccc(C#N)cc2)CC1
Reply text: 22 nM
